System: K98450-129-R-PDC complex spheroid growth, percent test/control;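 also: luminescence used as a proxy for viable cell amount; spheroids exposed to agents for seven days before the viability readout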
run description: Anticancer human tumor K98450-129-R-PDC patient-derived colon adenocarcinoma cell line growth inhibition [RAS]; active = viability on the fitted dose curve at most 10% of control; inactive = the rest
particulars: second compound 0.000949 µM; first compound 3.16 µM
Give your call using only these classes: True = active, False = inactive

Some entries whose results are on file:
{"molecule": "NC1c2ccccc2OC12CCN(c1cnc3c(N4CCCc5ncccc54)n[nH]c3n1)CC2 (stereo not given) + CCn1c(-c2cc(N3CCN(C)CC3)cnc2C(C)OC)c2c3cc(ccc31)-c1csc(n1)CC(NC(=O)C1CC1C)C(=O)N1CCCC(N1)C(=O)OCC(C)(C)C2", "class assignment": "True"}
{"molecule": "CCC(CC)c1cc(NC2CCC(N)C2)n2nccc2n1 (stereo not given) + CCn1c(-c2cc(N3CCN(C)CC3)cnc2C(C)OC)c2c3cc(ccc31)-c1csc(n1)CC(NC(=O)C1CC1C)C(=O)N1CCCC(N1)C(=O)OCC(C)(C)C2", "class assignment": "False"}

Q: Query: recorded result category for CC1(O)CCCC1n1c(=O)c(C(F)F)cc2cnc(NC3CCN(S(C)(=O)=O)CC3)nc21 (stereo not given) + CCn1c(-c2cccnc2C(C)OC)c2c3cc(ccc31)N1CCOC(CC(NC(=O)C(C(C)C)N(C)C(=O)C3(F)CCN(C(=O)C#CC(C)(C)N(C)C)CC3)C(=O)N3CCCC(N3)C(=O)OCC(C)(C)C2)C1 in this test
Ans: False

Q: Query: recorded result category for CC(C)NCC(C(=O)N1CCN(c2ncnc3c2C(C)CC3O)CC1)c1ccc(Cl)cc1 (stereo not given) + CCn1c(-c2cccnc2C(C)OC)c2c3cc(ccc31)N1CCOC(CC(NC(=O)C(C(C)C)N(C)C(=O)C3(F)CCN(C(=O)C#CC(C)(C)N(C)C)CC3)C(=O)N3CCCC(N3)C(=O)OCC(C)(C)C2)C1 in this test
Ans: False

Q: Query: recorded result category for CC(=O)OC12COC1CC(O)C1(C)C(=O)C(O)C3=C(C)C(OC(=O)C(O)C(NC(=O)OC(C)(C)C)c4ccccc4)CC(O)(C(OC(=O)c4ccccc4)C21)C3(C)C (stereo not given) + CCn1c(-c2cccnc2C(C)OC)c2c3cc(ccc31)N1CCOC(CC(NC(=O)C(C(C)C)N(C)C(=O)C3(F)CCN(C(=O)C#CC(C)(C)N(C)C)CC3)C(=O)N3CCCC(N3)C(=O)OCC(C)(C)C2)C1 in this test
Ans: False

Q: Query: recorded result category for Cc1nc(N2CCC3(CC2)COC(C)C3N)c(CO)nc1Sc1ccnc(N)c1Cl (stereo not given) + CCn1c(-c2cccnc2C(C)OC)c2c3cc(ccc31)N1CCOC(CC(NC(=O)C(C(C)C)N(C)C(=O)C3(F)CCN(C(=O)C#CC(C)(C)N(C)C)CC3)C(=O)N3CCCC(N3)C(=O)OCC(C)(C)C2)C1 in this test
Ans: False

Q: Query: recorded result category for CCC(CC)c1cc(NC2CCC(N)C2)n2nccc2n1 (stereo not given) + CCn1c(-c2cccnc2C(C)OC)c2c3cc(ccc31)N1CCOC(CC(NC(=O)C(C(C)C)N(C)C(=O)C3(F)CCN(C(=O)C#CC(C)(C)N(C)C)CC3)C(=O)N3CCCC(N3)C(=O)OCC(C)(C)C2)C1 in this test
Ans: False

Q: Query: recorded result category for Cc1nc(N2CCC3(CC2)COC(C)C3N)c(CO)nc1Sc1ccnc(N)c1Cl (stereo not given) + CCn1c(-c2cc(N3CCN(C)CC3)cnc2C(C)OC)c2c3cc(ccc31)-c1csc(n1)CC(NC(=O)C1CC1C)C(=O)N1CCCC(N1)C(=O)OCC(C)(C)C2 in this test
Ans: False

Q: Query: recorded result category for C[C@@H](NC(=O)c1ncnc(N)c1Cl)c1ncc(C(=O)Nc2cc(C(F)(F)F)c(Cl)cn2)s1 + CCn1c(-c2cc(N3CCN(C)CC3)cnc2C(C)OC)c2c3cc(ccc31)-c1csc(n1)CC(NC(=O)C1CC1C)C(=O)N1CCCC(N1)C(=O)OCC(C)(C)C2 in this test
Ans: False

Q: Query: recorded result category for CC(Nc1ccc2c(c1)OCCn1cc(N3C(=O)OCC3C(F)F)nc1-2)C(N)=O (stereo not given) + CCn1c(-c2cc(N3CCN(C)CC3)cnc2C(C)OC)c2c3cc(ccc31)-c1csc(n1)CC(NC(=O)C1CC1C)C(=O)N1CCCC(N1)C(=O)OCC(C)(C)C2 in this test
Ans: False
